system: Enterococcus faecalis (ATCC29212); assay: Microtitre plate assay, IC90 determination, EFA 29212; format: cell-based; details: Enterococcus faecalis, ATCC29212, 24 h, 90% inhibitory concentration for bacterial growth, 37° C., resazurin fluorescence, read-out: IC90 (μg/ml) EFA 29212
Parameter: IC90. Scope: all listed entries.

# compound, system, IC90 (µg/mL)
measured = [
    ("COc1nc2ccc(Br)cc2cc1C(c1ccccc1)C(O)(CCN(C)C)c1cccs1 (centres unmarked) [Compound 21]", "Enterococcus faecalis (ATCC29212)", 11.5),
    ("COc1nc2ccc(Br)cc2cc1C(c1ccccc1)C(O)(CCN(C)C)c1ccccc1 (single isomer, unassigned) [E]", "Enterococcus faecalis (ATCC29212)", 11.3),
    ("COc1nc2ccc(Br)cc2cc1C(c1ccccc1)C(O)(CCN(C)C)c1ccc2ccccc2c1 (centres unmarked) [Compound 46]", "Enterococcus faecalis (ATCC29212)", 5),
    ("COc1nc2ccc(Br)cc2cc1C(c1ccccc1)C(O)(CCn1ccnc1)c1ccccc1 (centres unmarked) [Compound 50]", "Enterococcus faecalis (ATCC29212)", 10.5),
    ("COc1nc2ccc(Br)cc2cc1C(c1ccc(Cl)cc1)C(O)(CCN(C)C)c1ccccc1 (centres unmarked) [Compound 36]", "Enterococcus faecalis (ATCC29212)", 4.8),
    ("CSc1nc2ccc(Br)cc2cc1C(c1ccccc1)C(O)(CCN(C)C)c1ccccc1 (centres unmarked) [Compound 32]", "Enterococcus faecalis (ATCC29212)", 4.6),
    ("COc1nc2ccc(Br)cc2cc1C(c1ccccc1)C(O)(CCN(C)C)C1CCN(C(=O)c2ccccc2)CC1 (centres unmarked) [Compound 201]", "Enterococcus faecalis (ATCC29212)", 12.3),
    ("COc1nc2ccc(Br)cc2cc1C(c1ccccc1)C(O)(CCN(C)C)c1cccc(F)c1 (centres unmarked) [Compound 109]", "Enterococcus faecalis (ATCC29212)", 11.7),
    ("COc1nc2ccc(-c3cccnc3)cc2cc1C(c1ccccc1)C(O)(CCN(C)C)c1cc(F)cc(F)c1 (centres unmarked) [Compound G]", "Enterococcus faecalis (ATCC29212)", 10.8),
    ("COc1nc2ccc(Br)cc2cc1C(c1ccccc1)C(O)(CCN(C)C)c1ccsc1 (centres unmarked) [Compound 25]", "Enterococcus faecalis (ATCC29212)", 11.5),
    ("COc1nc2ccc(-c3ccccc3)cc2cc1C(c1ccccc1)C(O)(CCN(C)C)c1ccccc1 (centres unmarked) [Compound 26]", "Enterococcus faecalis (ATCC29212)", 4.5),
    ("COc1nc2ccc(Br)cc2cc1C(c1ccccc1)C(O)(CCN(C)C)c1cccc2ccccc12 (centres unmarked) [Compound 14]", "Enterococcus faecalis (ATCC29212)", 5),
    ("CCOc1nc2ccc(Br)cc2cc1C(c1ccccc1)C(O)(CCN(C)C)c1ccccc1 (centres unmarked) [Compound 6]", "Enterococcus faecalis (ATCC29212)", 11.6),
    ("CCN(CC)CCC(O)(c1ccccc1)C(c1ccccc1)c1cc2cc(Br)ccc2nc1OC (centres unmarked) [Compound 18]", "Enterococcus faecalis (ATCC29212)", 13.3),
]

====

test system: Bacillus subtilis (ATCC43639); test: Microtitre plate assay, IC90 determination, BSU 43639; type: cell-based; settings: 90% inhibitory concentration for bacterial growth, 37° C., 24 hours, resazurin fluorescence
result-type: IC90 (μg/ml) BSU 43639 (µg/mL)

# molecule, result-type, measured-result
data = [
    ("COc1nc2ccc(Br)cc2cc1C(c1ccccc1)C(O)(CCN(C)C)c1cccc2ccccc12 (stereo not shown) [Compound 15]", "IC90 (μg/ml) BSU 43639", 24.8),
    ("COc1nc2ccc(Br)cc2cc1C(c1ccccc1)C(O)(CCN(C)C)c1cccc2ccccc12 (stereo not shown) [Compound 13]", "IC90 (μg/ml) BSU 43639", 11.1),
    ("COc1nc2ccc(Br)cc2cc1C(c1ccccc1)C(O)(CCN1CCN(C)CC1)c1ccc2ccccc2c1 (racemic)", "IC90 (μg/ml) BSU 43639", 10.6),
    ("COc1nc2ccc(Br)cc2cc1C(c1ccccc1)C(O)(CCN1CCN(C)CC1)c1ccc2cc(Br)ccc2c1 (racemic)", "IC90 (μg/ml) BSU 43639", 10.9),
]
